- Test system: P388 leukemia ip, CD2F1 mice, survival T/C
- Assay text: NCI In Vivo Anticancer Drug Screen. Data for tumor model P388 Leukemia (intraperitoneal) in CD2F1 (CDF1) mice
- Conditions: endpoint: median survival time; dose: 60.0 mg/kg/injection; schedule: Q01DX005 (ip); vehicle: Klucel (hydroxypropylcellulose) (HPC); higher = longer survival
Inconclusive results and toxic doses are left out.
Metric name: T/C

For orientation, consider the following solved cases.
INSERT INTO results (compound, metric_name, val) VALUES
  ('Cc1cc(-n2nnc3ccccc3c2=O)on1', 'T/C', '114 % of control'),
  ('O=C(O)CNC(=O)CNc1nc(Cl)nc(NCC(=O)NCC(=O)O)n1', 'T/C', '97 % of control'),
  ('O=C1OCC(c2ccno2)=C1O', 'T/C', '100 % of control'),
  ('COc1ccc(S(=O)(=O)O)cc1N=N/C(=N/Nc1cc(S(=O)(=O)O)ccc1OC)C(=O)Nc1ccccc1', 'T/C', '101 % of control'),
  ('O=C(O)/C=C/C(=O)NNc1nc2ccccc2s1', 'T/C', '97 % of control');

*Q* What value of measured T/C is listed for c1ccc(Nc2ccc(CN3CCOCC3)cc2)cc1 ?
*A* 105 % of control

*Q* Need T/C, item O=S(=O)(c1ccccc1)N1OC1c1ccccc1 (stereo not given)
*A* 104 % of control

====

- System: P388 leukemia ip, CD2F1 mice, survival T/C
- Assay text: NCI In Vivo Anticancer Drug Screen. Data for tumor model P388 Leukemia (intraperitoneal) in CD2F1 (CDF1) mice
- Conditions: endpoint: median survival time; dose: 3.12 mg/kg/injection; schedule: Q01DX009 (ip); vehicle: saline; higher = longer survival
Toxic doses and inconclusive results are not listed.
Metric name: T/C

Use these answered entries as a reference point.
INSERT INTO assay_data (molecule, metric_name, val) VALUES
  ('[CH3][Sn]([CH3])([Cl])[S]CCN', 'T/C', '123 % of control'),
  ('OC(/C=C\CC(O)(C(F)(F)F)C(F)(F)F)(C(F)(F)F)C(F)(F)F', 'T/C', '100 % of control'),
  ('CCOC(=O)[C]1([Hg][CH3])N=NC(C(=O)OC)=C1C(=O)OC (centres undefined)', 'T/C', '93 % of control');

Here's the next entry for you.
*Q* Request body: readout T/C, system P388 leukemia ip, CD2F1 mice, survival T/C, query C[N+]1(Cc2ccccc2)C2CCC1C(CCl)C(O)C2 (centres undefined) . Return the value.
*A* 111 % of control

====

- Test system: P388 leukemia ip, CD2F1 mice, survival T/C
- Assay text: NCI In Vivo Anticancer Drug Screen. Data for tumor model P388 Leukemia (intraperitoneal) in CD2F1 (CDF1) mice
- Conditions: endpoint: median survival time; dose: 200.0 mg/kg/injection; schedule: Q04DX002 (ip); vehicle: saline; higher = longer survival
Inconclusive results and toxic doses are left out.
Metric name: T/C

Some entries whose results are on file:
INSERT INTO results (compound, target_desc, metric_name, val) VALUES
  ('C[C@@H]1C[C@H](C)S(=O)[C@H](C)S1 (stereo partly drawn)', 'P388 leukemia ip, CD2F1 mice, survival T/C', 'T/C', '102 % of control'),
  ('COCC1CCCN1 (stereo not drawn)', 'P388 leukemia ip, CD2F1 mice, survival T/C', 'T/C', '110 % of control'),
  ('CCN(CC)CCOC(=O)Cc1cccc2c(=O)cc(-c3ccccc3)oc12', 'P388 leukemia ip, CD2F1 mice, survival T/C', 'T/C', '110 % of control'),
  ('CC1CN(/C=C2\Cc3c(Cl)cccc3C2=O)CCN1c1ccc(Cl)cc1 (stereo not drawn)', 'P388 leukemia ip, CD2F1 mice, survival T/C', 'T/C', '102 % of control'),
  ('Cc1cc(C2C(=O)c3ccccc3C2=O)cc(C(C)(C)C)c1O', 'P388 leukemia ip, CD2F1 mice, survival T/C', 'T/C', '107 % of control'),
  ('CNCC(=O)Nc1ccc(C2NC(=O)Cc3ccccc32)cc1 (stereo not drawn)', 'P388 leukemia ip, CD2F1 mice, survival T/C', 'T/C', '111 % of control');

*Q* What reported T/C corresponds to OCC1CCCN1 (stereo not drawn) on P388 leukemia ip, CD2F1 mice, survival T/C?
*A* 96 % of control

*Q* Give P388 leukemia ip, CD2F1 mice, survival T/C T/C for N[C@@H](C[C@H]1CCC(=O)[C@@H]2O[C@H]12)C(=O)O
*A* 98 % of control

====

Entries and their T/C
- Tested on: P388 leukemia ip, CD2F1 mice, survival T/C
- Assay text: NCI In Vivo Anticancer Drug Screen. Data for tumor model P388 Leukemia (intraperitoneal) in CD2F1 (CDF1) mice
- Conditions: endpoint: median survival time; dose: 6.25 mg/kg/injection; schedule: Q01DX009 (ip); vehicle: saline with Tween-80; higher = longer survival
Inconclusive results and toxic doses are left out.

INSERT INTO results (compound, val) VALUES
  ('NC(=O)c1nc[nH]c1F', '102 % of control'),
  ('COC(=O)[CH](C[N+](=O)[O-])[Hg][Cl] (configuration not stated)', '100 % of control'),
  ('Cc1cc2nc(C=C(C(F)(F)F)C(F)(F)F)oc2cc1C', '95 % of control'),
  ('CC(O)C(NC(=O)c1cnc(OCc2ccccc2)nc1N)C(=O)O (configuration not stated)', '100 % of control'),
  ('CCC(=O)Nc1ccc(C(=O)C(C)Br)cc1 (configuration not stated)', '108 % of control'),
  ('CN1CC(C(=O)O)=Nc2c1nc(N)[nH]c2=O', '101 % of control');

*Q* T/C lookup needed for C#CCOc1ccccc1/C(Cl)=N/Nc1ccc([N+](=O)[O-])cc1[N+](=O)[O-] , thanks.
*A* 97 % of control

*Q* Which T/C value belongs to CCOC(=O)c1ccc(NC(=O)O/N=C/c2ccncc2)cc1 ?
*A* 88 % of control

*Q* Bench note: what T/C did OCC1C=CCC1 (configuration not stated) show?
*A* 99 % of control

*Q* Param item = O=[N+]([O-])/C(=C/c1ccccc1)c1ccccc1 ; retrieve measured T/C.
*A* 109 % of control

*Q* Which T/C value is on record for Cc1cc(Cl)n[nH]1 ?
*A* 108 % of control

*Q* Field request: T/C | item: CCOC(=O)SC(=S)OCC
*A* 108 % of control

*Q* Recorded T/C for O=C(NC(=O)c1c(F)cccc1F)Nc1nc2ccccc2s1 , please?
*A* 113 % of control

*Q* Suppose we examine the compound COc1ccc(OC)c(N2C(=O)C=C(C)C2(O)CC#N)c1 (configuration not stated) ; what T/C value has been reported?
*A* 100 % of control

*Q* So what does the record say about T/C for CC(C)CC([NH-])C(=O)O.[C-]#[O+].[C-]#[O+].[Rh] (configuration not stated) ?
*A* 113 % of control

*Q* Quick check: T/C of O=S1(=O)C[CH-]C1.[C-]#[O+].[C-]#[O+].[C-]#[O+].[W].[c-]1[c-][c-][cH-][c-]1 ?
*A* 93 % of control

*Q* For CN[C@H]1CC[C@]23C[C@]24CC[C@]2(C)[C@@H]([C@H](C)N(C)C)CC[C@@]2(C)[C@@H]4CC[C@H]3C1(C)C , what is its reported T/C?
*A* 100 % of control

====

- Tested on: P388 leukemia ip, CD2F1 mice, survival T/C
- Assay text: NCI In Vivo Anticancer Drug Screen. Data for tumor model P388 Leukemia (intraperitoneal) in CD2F1 (CDF1) mice
- Conditions: endpoint: median survival time; dose: 25.0 mg/kg/injection; schedule: Q01DX009 (ip); vehicle: saline
- Method: The antitumor activity of compounds was measured in mice bearing transplantable tumors. Survival or tumor size were measured and the results are expressed as the measurement made in the treated group (T) divided by the measurement made in the vehicle treated control group (C). The tumor model used in this assay is P388 Leukemia (intraperitoneal) in CD2F1 (CDF1) mice
Inconclusive results and toxic doses are left out. The calls were made as follows: active = survival T/C of 150% or more; inactive = T/C below 125% in these data.
Thanks in advance; please answer with one of these: label 1 = active, label 0 = inactive

The examples below pair each entry with its known result.
INSERT INTO assay_data (compound, discrete_label) VALUES
  ('NCC(O)c1cccc(O)c1 (centres undefined)', 'label 0'),
  ('O=C(O)CCCCCCCCC(=O)CCl', 'label 0'),
  ('Nc1ccccc1SC1CCCCC1O (centres undefined)', 'label 0');

*Q* Could you please tell me the result logged for CN1CCCN(C)C1c1ccccc1 in this assay?
*A* label 0

*Q* For CCOCCOCCOC12C(=O)C(Cl)=C(Cl)C(=O)C13C1CC2C(Cl)C13 (centres undefined) , what call appears in the results of this test?
*A* label 0

*Q* Please let me know the test result on file for CCc1ccc(NC(=O)NC(=O)c2c(F)cccc2F)cc1 .
*A* label 0

*Q* Look up the recorded call for BrC[P+](CBr)(CBr)CBr in this test.
*A* label 1

*Q* Name the outcome recorded for CCCN(CCC)CC(=O)Nc1c(Cl)cccc1Cl in the assay.
*A* label 0

*Q* Dear all, I need the recorded test outcome for NC(CS)C(=O)O.[Cl-].[Cl-].[Cl-].[Cl-].[Pt+2] (centres undefined) , thank you.
*A* label 0

*Q* Check the results log: what was the call for CN(C)/C(N)=N\c1ncccn1 ?
*A* label 0

*Q* Record lookup: outcome of this test for CCCCCCCC/C=C\CCCCCCCC(=O)NCCCN(C)C ?
*A* label 0
